Field: self-cleavage. Provide a value for each of the variants that follow.
B1: LINE1-full (parent)
chain: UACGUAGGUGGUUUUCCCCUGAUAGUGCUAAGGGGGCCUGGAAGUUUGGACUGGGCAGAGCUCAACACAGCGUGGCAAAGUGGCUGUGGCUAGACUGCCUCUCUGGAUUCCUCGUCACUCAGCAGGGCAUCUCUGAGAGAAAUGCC

variants of: B1; assay: self-cleavage, relative activity (ratio to wild type); higher = more cleavage; in vitro, sequencing; the parent is a self-cleaving ribozyme
Answers are plain numbers.

Sample records with self-cleavage:
{"VARIANT_ID": "U5C C38A", "VALUE": 1.79}
{"VARIANT_ID": "U87C A124G", "VALUE": 0.11}
{"VARIANT_ID": "U115A A142U", "VALUE": 1.38}
{"VARIANT_ID": "A78G C116A", "VALUE": 0.87}

For the variant A94U U102A , what self-cleavage is on record?
0.33
